- Tested on: Cavia porcellus
- run.description: Ex vivo inhibition of collagen-induced platelet aggregation in guinea pig after p.o. administration.
measured.quantity: ED50

CCOC(=O)CN1CCN(C[C@@H]2CN(c3ccc(C(=N)NC(=O)c4ccc(OC)cc4)cc3)C(=O)O2)CC1 ... < 1 mg/kg
CCOC(=O)CN1CCN(C[C@@H]2CN(c3ccc(C(=N)NC(=O)c4ccccc4)cc3)C(=O)O2)CC1 ... 0.32 mg/kg
CCOC(=O)CN1CCN(CC2CN(c3ccc(C(=N)NC(=O)Oc4ccccc4)cc3)C(=O)O2)CC1 (centres undefined) ... 0.2 mg/kg
CCOC(=O)CC1(O)CCN(CC2CN(c3ccc(C(=N)NC(=O)c4ccccc4)cc3)C(=O)O2)CC1 (centres undefined) ... 3 mg/kg
CCOC(=O)C1CCN(CC2CN(c3ccc(C(=N)NC(=O)c4ccccc4)cc3)C(=O)O2)CC1 (centres undefined) ... 10 mg/kg

## Task Record CCOC(=O)CCN1CCN(CC2CN(c3ccc(C(=N)NC(=O)OC)cc3)C(=O)O2)CC1 (centres undefined) : what is its ED50 with Cavia porcellus?
## Result > 10 mg/kg

## Task Now consider CC(=O)O/N=C(/N)c1ccc(N2C[C@@H](CN3CCN(CC(=O)O)CC3)OC2=O)cc1 .
## Result > 10 mg/kg

## Task Now consider CCOC(=O)CC1CCN(CC2CN(c3ccc(C(=N)NC(=O)c4ccccc4)cc3)C(=O)O2)CC1 (centres undefined) .
## Result 3 mg/kg

## Task Now consider CCOC(=O)CN1CCN(CC2CN(c3ccc(C(=N)NC(=O)OC)cc3)C(=O)O2)CC1 (centres undefined) .
## Result 0.4 mg/kg
